Assay: PK and maximally tolerated dose, daily oral administration, mouse
Type: in vivo
Conditions: in vivo, po
Method: The allometric scaling is based on toxicity, and the toxicity is that which establishes the Maximally Tolerated Dose (MTD) in animal studies. In mice, one toxicity study established the MTD to be 35 mg/kg. […] Allometric scaling is a means by which PK results from animal studies can be used to predict human drug exposure for a range of drug doses. […] These inputs were analyzed with www.truedose.app to predict the Maximally Tolerated Dose we would see in this phase one clinical trial (FIG. 2). […]
MEASURED_PROPERTY: half-life (h)

# COMPOUND, OBSERVED_RESULT
rows = [
    ("Cc1c(NS(=O)(=O)c2c(Cl)cc(-c3ccnc(N4CCNCC4)c3)cc2Cl)c(CC(C)C)nn1C [PCLX-001]", 1.6),
]

###

Assay: Phase I trial of oral PCLX-001: plasma pharmacokinetics, noncompartmental analysis (Phoenix WinNonlin 8.3)
Type: in vivo, human
Details: human, plasma, po, 20 mg, Table 6; Patient 115-002-001; Day 1; 20 mg QD oral; Pantoprazole No
MEASURED_PROPERTY: Cmax (ng/mL)

# SMILES_CODE, OBSERVED_RESULT
data = [
    ("Cc1c(NS(=O)(=O)c2c(Cl)cc(-c3ccnc(N4CCNCC4)c3)cc2Cl)c(CC(C)C)nn1C", 360),
]

###

Assay: Phase I trial of oral PCLX-001: plasma pharmacokinetics, noncompartmental analysis (Phoenix WinNonlin 8.3)
Type: in vivo, human
Details: human, plasma, oral, 40 mg, Table 4; not on Pantoprazole; 40 mg; N 1; Day 1; read-out: Tmax

# SMILES_CODE, Tmax
rows = [
    ("Cc1c(NS(=O)(=O)c2c(Cl)cc(-c3ccnc(N4CCNCC4)c3)cc2Cl)c(CC(C)C)nn1C", "1 h"),
]

###

Test: Phase I trial of oral PCLX-001: plasma pharmacokinetics, noncompartmental analysis (Phoenix WinNonlin 8.3)
Assay type: in vivo, human
Conditions: human, plasma, po, 70 mg, Table 8; Patient 115-024-001; Day 1; 70 mg QD oral; Pantoprazole No

# MOLECULE, RESULT_UNITS, Cmax
rows = [
    ("Cc1c(NS(=O)(=O)c2c(Cl)cc(-c3ccnc(N4CCNCC4)c3)cc2Cl)c(CC(C)C)nn1C [PCLX-001]", "ng/mL", 1430),
]

###

Experiment: Phase I trial of oral PCLX-001: plasma pharmacokinetics, noncompartmental analysis (Phoenix WinNonlin 8.3)
Type: in vivo, human
Settings: human, plasma, po, 20 mg, Table 1A; Patient 115-002-004 (Patient 3); Day 1; 20 mg oral daily; read-out: Half-life (converted)
Text: The clinical trial is entitled “Phase I Trial of PCLX-001 in B-cell Non-Hodgkin Lymphoma and Advanced Solid Malignancies” and registered at clinicaltrials.gov as NCT04836195. It is a phase I dose-escalation study of oral PCLX-001, conducted in a multicenter, non-randomized, open-label, non-controlled design. The study is comprised of two parts: Part A (single-agent dose escalation) and Part B (single-agent expansion cohorts). […]

# MOLECULE, RESULT_UNITS, half-life
rows = [
    ("Cc1c(NS(=O)(=O)c2c(Cl)cc(-c3ccnc(N4CCNCC4)c3)cc2Cl)c(CC(C)C)nn1C [PCLX-001]", "h", 5.61),
]

###

Assay: Phase I trial of oral PCLX-001: plasma pharmacokinetics, noncompartmental analysis (Phoenix WinNonlin 8.3)
Assay type: in vivo, human
Conditions: human, plasma, oral, 140 mg, Table 4; median (min, max); not on Pantoprazole; 140 mg; N 1; Day 15; read-out: Tmax

# SMILES_CODE, Tmax (h)
data = [
    ("Cc1c(NS(=O)(=O)c2c(Cl)cc(-c3ccnc(N4CCNCC4)c3)cc2Cl)c(CC(C)C)nn1C", 1.5),
]

###

Experiment: Phase I trial of oral PCLX-001: plasma pharmacokinetics, noncompartmental analysis (Phoenix WinNonlin 8.3)
Type: in vivo, human
Settings: human, plasma, po, 20 mg, Table 6; Patient 115-002-002; Day 1; 20 mg QD oral; Pantoprazole No; read-out: Tmax
MEASURED_PROPERTY: Tmax (h)

# SMILES_CODE, OBSERVED_RESULT
measured = [
    ("Cc1c(NS(=O)(=O)c2c(Cl)cc(-c3ccnc(N4CCNCC4)c3)cc2Cl)c(CC(C)C)nn1C", 4),
]

###

Assay: Phase I trial of oral PCLX-001: plasma pharmacokinetics, noncompartmental analysis (Phoenix WinNonlin 8.3)
Format: in vivo, human
Settings: human, plasma, po, 20 mg, Table 1A; Patient 115-002-001 (Patient 1); Day 15; 20 mg oral daily; read-out: Tmax

# SMILES_CODE, RESULT_UNITS, Tmax
data = [
    ("Cc1c(NS(=O)(=O)c2c(Cl)cc(-c3ccnc(N4CCNCC4)c3)cc2Cl)c(CC(C)C)nn1C", "h", 1),
]

###

Experiment: Phase I trial of oral PCLX-001: plasma pharmacokinetics, noncompartmental analysis (Phoenix WinNonlin 8.3)
Format: in vivo, human
Details: human, plasma, po, 140 mg, Table 10; Patient 115-024-013; Day 15; Dose 140 mg QD oral; Concomitant Pantoprazole Yes; read-out: Half-life (converted)

# COMPOUND, half-life / h
measured = [
    ("Cc1c(NS(=O)(=O)c2c(Cl)cc(-c3ccnc(N4CCNCC4)c3)cc2Cl)c(CC(C)C)nn1C [PCLX-001]", 10.1),
]

###

Assay: Phase I trial of oral PCLX-001: plasma pharmacokinetics, noncompartmental analysis (Phoenix WinNonlin 8.3)
Type: in vivo, human
Conditions: human, plasma, oral, 20 mg, Table 3; human (patient 1); 20 mg/75 kg = 0.27 mg/kg; read-out: Terminal elimination half-life (converted)

# MOLECULE, half-life, min
measured = [
    ("Cc1c(NS(=O)(=O)c2c(Cl)cc(-c3ccnc(N4CCNCC4)c3)cc2Cl)c(CC(C)C)nn1C [PCLX-001]", 960),
]

###

Experiment: Phase I trial of oral PCLX-001: plasma pharmacokinetics, noncompartmental analysis (Phoenix WinNonlin 8.3)
Assay type: in vivo, human
Conditions: human, plasma, oral, 140 mg, Table 4; Mean (CV); not on Pantoprazole; 140 mg; N 1; Day 15
MEASURED_PROPERTY: Cmax

# SMILES_CODE, OBSERVED_RESULT
records = [
    ("Cc1c(NS(=O)(=O)c2c(Cl)cc(-c3ccnc(N4CCNCC4)c3)cc2Cl)c(CC(C)C)nn1C", "903 ng/mL"),
]

###

Experiment: Phase I trial of oral PCLX-001: plasma pharmacokinetics, noncompartmental analysis (Phoenix WinNonlin 8.3)
Type: in vivo, human
Settings: human, plasma, po, 100 mg, Table 9; Patient 115-002-009; Day 1; 100 mg QD oral; Pantoprazole No

# SMILES_CODE, RESULT_UNITS, AUC(0-inf)
records = [
    ("Cc1c(NS(=O)(=O)c2c(Cl)cc(-c3ccnc(N4CCNCC4)c3)cc2Cl)c(CC(C)C)nn1C", "ng·h/mL", 15400),
]

###

Test: Phase I trial of oral PCLX-001: plasma pharmacokinetics, noncompartmental analysis (Phoenix WinNonlin 8.3)
Assay type: in vivo, human
Conditions: human, plasma, po, 140 mg, Table 10; Patient 115-024-013; Day 15; Dose 140 mg QD oral; Concomitant Pantoprazole Yes
Description: The clinical trial is entitled “Phase I Trial of PCLX-001 in B-cell Non-Hodgkin Lymphoma and Advanced Solid Malignancies” and registered at clinicaltrials.gov as NCT04836195. It is a phase I dose-escalation study of oral PCLX-001, conducted in a multicenter, non-randomized, open-label, non-controlled design. The study is comprised of two parts: Part A (single-agent dose escalation) and Part B (single-agent expansion cohorts). […]
MEASURED_PROPERTY: AUC(0-inf) (ng·h/mL)

# SMILES_CODE, OBSERVED_RESULT
measured = [
    ("Cc1c(NS(=O)(=O)c2c(Cl)cc(-c3ccnc(N4CCNCC4)c3)cc2Cl)c(CC(C)C)nn1C", 14300),
]

###

Assay: Phase I trial of oral PCLX-001: plasma pharmacokinetics, noncompartmental analysis (Phoenix WinNonlin 8.3)
Type: in vivo, human
Conditions: human, plasma, po, 40 mg, Table 7; Patient 115-002-005; Day 1; 40 mg QD oral; Pantoprazole Yes; read-out: Half-life (converted)

# SMILES_CODE, half-life
rows = [
    ("Cc1c(NS(=O)(=O)c2c(Cl)cc(-c3ccnc(N4CCNCC4)c3)cc2Cl)c(CC(C)C)nn1C", "7.5 h"),
]

###

Assay: Phase I trial of oral PCLX-001: plasma pharmacokinetics, noncompartmental analysis (Phoenix WinNonlin 8.3)
Assay type: in vivo, human
Details: human, plasma, po, 20 mg, Table 6; Patient 115-002-004; Day 15; 20 mg QD oral; Pantoprazole No
MEASURED_PROPERTY: Cmax (ng/mL)

# SMILES_CODE, MEASURED_PROPERTY, RESULT_UNITS, OBSERVED_RESULT
data = [
    ("Cc1c(NS(=O)(=O)c2c(Cl)cc(-c3ccnc(N4CCNCC4)c3)cc2Cl)c(CC(C)C)nn1C", "Cmax", "ng/mL", 356),
]
